# tgt: (CTG)54 template (36% AT), T7 RNA polymerase
# testMethodNotes: In vitro transcription assay
# measurementParameters: read-out: IC50, inhibition of transcription
measurementLabel: IC50 (µM)
Use µM as the unit, but write only the number.

If you can, please state the reported IC50 value of N=C(N)c1ccc(OCCCCCOc2ccc(C(=N)N)cc2)cc1 .
14.2

====

# tgt: APP5 template (50% AT), T7 RNA polymerase
# testMethodNotes: In vitro transcription assay, APP5 template
# measurementParameters: read-out: IC50, inhibition of transcription
measurementLabel: IC50
Answer shape: numeric part, then the unit.

If you can, please state the reported IC50 value of N=C(N)c1ccc(OCCCCCOc2ccc(C(=N)N)cc2)cc1 .
19.1 µM

====

# Test system: INSR exon 11 mis-splicing, HeLa cells with 960 CUG repeats
# testMethodNotes: INSR minigene splicing rescue in HeLa DM1 cell model
# Assay type: cell-based
# measurementParameters: Homo sapiens, HeLa, read-out: EC50, rescue of INSR mis-splicing
measurementLabel: pEC50
Scale note: pEC50 = -log10(concentration in M).

If you can, please state the reported pEC50 value of N=C(N)c1ccc(OCCCOc2ccc(C(=N)N)cc2)cc1 .
4.38

If you can, please state the reported pEC50 value of N=C(N)c1ccc(OCCCCCCOc2ccc(C(=N)N)cc2)cc1 .
4.82

If you can, please state the reported pEC50 value of N=C(N)c1ccc(OCCCCCOc2ccc(C(=N)N)cc2)cc1 .
4.51

If you can, please state the reported pEC50 value of N=C(N)c1ccc(OCCCCCCCOc2ccc(C(=N)N)cc2)cc1 .
5.05

====

# tgt: pTRIEX template (72% AT), T7 RNA polymerase
# testMethodNotes: In vitro transcription assay, pTRIEX template
# measurementParameters: read-out: IC50, inhibition of transcription
measurementLabel: pIC50
Scale note: pIC50 = -log10(concentration in M).

If you can, please state the reported pIC50 value of N=C(N)c1ccc(OCCCCCOc2ccc(C(=N)N)cc2)cc1 [pentamidine, 1,5-bis(4-amidinophenoxy)pentane] .
5.25

====

# System: TNNT2 exon 5 mis-splicing, HeLa cells with 960 CUG repeats
# testMethodNotes: TNNT2 minigene splicing rescue in HeLa DM1 cell model
# Format: cell-based
# measurementParameters: Homo sapiens, HeLa, read-out: EC50, concentration necessary to observe 50% rescue of TNNT2 mis-splicing
measurementLabel: EC50 (µM)
Use µM as the unit, but write only the number.

If you can, please state the reported EC50 value of N=C(N)c1ccc(OCCCCCOc2ccc(C(=N)N)cc2)cc1 [pentamidine, 1,5-bis(4-amidinophenoxy)pentane] .
20

If you can, please state the reported EC50 value of N=C(N)c1ccc(OCCCCCCCOc2ccc(C(=N)N)cc2)cc1 [heptamidine] .
15

If you can, please state the reported EC50 value of N=C(N)c1ccc(OCCCCCCOc2ccc(C(=N)N)cc2)cc1 [hexamidine] .
12

====

# tgt: (CAG)54 template (36% AT), SP6 RNA polymerase
# testMethodNotes: In vitro transcription assay
# measurementParameters: read-out: IC50, inhibition of transcription
measurementLabel: pIC50
Scale note: pIC50 = -log10(concentration in M).

What is its pIC50 for (CAG)54 template (36% AT), SP6 RNA polymerase? Entry: N=C(N)c1ccc(OCCCCCOc2ccc(C(=N)N)cc2)cc1 [pentamidine, 1,5-bis(4-amidinophenoxy)pentane]
4.88

====

# tgt: APP3 template (42% AT), T7 RNA polymerase
# testMethodNotes: In vitro transcription assay, APP3 template
# measurementParameters: read-out: IC50, inhibition of transcription
measurementLabel: pIC50
Scale note: pIC50 = -log10(concentration in M).

If you can, please state the reported pIC50 value of N=C(N)c1ccc(OCCCCCOc2ccc(C(=N)N)cc2)cc1 .
4.44

The measured values listed here are drawn from paper PMC4108295.
